B1: MMP1 (parent)
chain: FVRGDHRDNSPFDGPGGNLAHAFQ

Variants of: B1
Assay: protein stability index of a GFP-peptide fusion (GPS, HEK-293T) (PSI 1-6); higher = more stable;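 also: lentivirally expressed fusions sorted by FACS into six bins by GFP to DsRed ratio, PSI derived from sequencing read proportions per bin multiplied by bin number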
Settings: c terminus: a fixed tail appended
Assign protein stability index to each entry below.

Here are 4 variants together with their reported answers.
N9A :: 2.53
V2L :: 3.03
D5F :: 2.45
D8A :: 1.63

Give protein stability index for all variants that follow.
1. H21N
2. R3L
3. P11L
4. R7L
5. D5I

1. 2.15
2. 2.13
3. 1.34
4. 3.54
5. 1.66

Give protein stability index for all variants that follow.
1. G14Y
2. R3E

1: 2.2; 2: 2.73
